- test-target: full-length human LRRK2 (leucine-rich repeat kinase 2) (human, UniProt Q5S007)
- Sequence (Q5S007 whole entry): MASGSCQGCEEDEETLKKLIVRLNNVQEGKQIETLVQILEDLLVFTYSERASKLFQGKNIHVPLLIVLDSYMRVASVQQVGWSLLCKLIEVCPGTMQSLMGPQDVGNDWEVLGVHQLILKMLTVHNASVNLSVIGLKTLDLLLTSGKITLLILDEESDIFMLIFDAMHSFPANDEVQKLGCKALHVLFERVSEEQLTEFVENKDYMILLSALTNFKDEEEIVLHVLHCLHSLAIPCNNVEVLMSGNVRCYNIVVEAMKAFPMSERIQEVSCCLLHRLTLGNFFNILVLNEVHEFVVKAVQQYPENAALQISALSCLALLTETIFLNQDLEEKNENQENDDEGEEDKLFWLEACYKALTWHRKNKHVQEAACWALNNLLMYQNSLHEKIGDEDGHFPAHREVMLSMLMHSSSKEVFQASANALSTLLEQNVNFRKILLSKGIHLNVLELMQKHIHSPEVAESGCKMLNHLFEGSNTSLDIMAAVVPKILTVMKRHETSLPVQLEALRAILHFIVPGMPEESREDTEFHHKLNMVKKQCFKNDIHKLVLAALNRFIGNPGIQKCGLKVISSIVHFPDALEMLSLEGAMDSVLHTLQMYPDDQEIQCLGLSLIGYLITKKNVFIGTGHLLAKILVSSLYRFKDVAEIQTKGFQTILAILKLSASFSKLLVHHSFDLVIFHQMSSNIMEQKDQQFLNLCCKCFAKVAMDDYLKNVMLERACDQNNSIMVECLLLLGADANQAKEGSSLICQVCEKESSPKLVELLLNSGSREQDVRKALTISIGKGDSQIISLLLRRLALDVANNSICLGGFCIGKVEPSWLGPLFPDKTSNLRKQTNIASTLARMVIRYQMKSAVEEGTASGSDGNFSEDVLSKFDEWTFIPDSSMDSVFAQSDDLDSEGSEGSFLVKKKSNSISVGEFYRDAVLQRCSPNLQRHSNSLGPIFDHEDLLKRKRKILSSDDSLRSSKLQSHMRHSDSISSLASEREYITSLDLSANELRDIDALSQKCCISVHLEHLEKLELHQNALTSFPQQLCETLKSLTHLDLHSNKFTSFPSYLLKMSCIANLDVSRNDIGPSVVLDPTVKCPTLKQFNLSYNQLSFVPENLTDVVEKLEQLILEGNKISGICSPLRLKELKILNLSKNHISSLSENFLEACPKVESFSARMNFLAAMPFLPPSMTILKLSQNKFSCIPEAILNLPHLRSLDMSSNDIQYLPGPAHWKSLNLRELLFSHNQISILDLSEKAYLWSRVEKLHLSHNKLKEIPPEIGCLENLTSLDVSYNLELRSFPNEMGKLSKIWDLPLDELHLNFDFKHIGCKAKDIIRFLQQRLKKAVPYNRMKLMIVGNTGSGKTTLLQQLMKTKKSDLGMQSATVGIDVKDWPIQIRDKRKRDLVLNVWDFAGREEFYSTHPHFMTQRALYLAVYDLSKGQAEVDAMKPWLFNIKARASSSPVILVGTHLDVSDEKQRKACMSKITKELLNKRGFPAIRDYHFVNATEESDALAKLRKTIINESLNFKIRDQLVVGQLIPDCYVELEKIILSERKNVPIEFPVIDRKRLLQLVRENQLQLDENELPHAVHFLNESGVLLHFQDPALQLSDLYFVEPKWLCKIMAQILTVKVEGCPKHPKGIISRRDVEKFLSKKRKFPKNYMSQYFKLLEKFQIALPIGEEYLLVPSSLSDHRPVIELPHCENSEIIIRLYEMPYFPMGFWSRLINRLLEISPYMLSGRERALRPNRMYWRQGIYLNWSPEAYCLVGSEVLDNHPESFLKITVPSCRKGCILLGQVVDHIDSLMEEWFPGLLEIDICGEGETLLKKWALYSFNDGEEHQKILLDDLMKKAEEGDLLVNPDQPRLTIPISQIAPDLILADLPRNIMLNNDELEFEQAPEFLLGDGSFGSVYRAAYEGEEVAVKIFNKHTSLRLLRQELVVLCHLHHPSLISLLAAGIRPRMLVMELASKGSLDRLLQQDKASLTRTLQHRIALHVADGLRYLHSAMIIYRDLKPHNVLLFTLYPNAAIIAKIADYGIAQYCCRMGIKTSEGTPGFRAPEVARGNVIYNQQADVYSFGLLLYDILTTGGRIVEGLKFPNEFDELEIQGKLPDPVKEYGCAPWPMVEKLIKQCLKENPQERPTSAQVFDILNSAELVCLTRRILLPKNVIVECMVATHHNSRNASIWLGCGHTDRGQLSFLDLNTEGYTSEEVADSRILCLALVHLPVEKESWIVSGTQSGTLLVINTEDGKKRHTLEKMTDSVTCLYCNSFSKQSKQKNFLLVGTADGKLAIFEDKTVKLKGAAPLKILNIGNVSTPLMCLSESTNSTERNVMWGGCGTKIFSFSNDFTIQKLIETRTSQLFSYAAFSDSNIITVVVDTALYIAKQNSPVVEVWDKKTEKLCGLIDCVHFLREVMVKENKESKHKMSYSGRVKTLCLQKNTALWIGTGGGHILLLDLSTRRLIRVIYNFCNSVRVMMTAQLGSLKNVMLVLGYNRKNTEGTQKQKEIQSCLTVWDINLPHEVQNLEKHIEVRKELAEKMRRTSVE
- assay-method-text: BLI
Parameter Kd: see the listing below.

>  <binder>
Nb6 (VHH) VHH: QVQLVESGGGLVQAGGSLRLSCAASGSIFSPTAMGWYRQAPGKERELVAGITSGGYTNYRNFARGRFTISRDNAKKTVYLQMNSLNPEDTAVYYCNTLTISWSWGQGTQVTVSS

>  <Kd>
8 nM

$$$$
>  <binder>
Nb40 (VHH) VHH: QVQLVESGGGLVQPGGSLRLSCVASGTIYAINRMGWYRQAPGKQRELVALITLGGGTNYGDSVKGRFTISRDNAKNTGYLQMNSLKPEDTAVYYCKVESSGYTDVFWGQGTQVTVSS

>  <Kd>
2.5 nM

$$$$
>  <binder>
Nb39 (VHH) VHH: QVQLVESGGGLVQAGGSLRLSCRASGGTFSTYAMGWFRQVPGKERETVAAVKWSGDMTYYADSVKGRFTISRDNAKNTVYLQMNSLRPEDTAVYYCAARRGLSYYRGPSEYDYWGQGTQVTVSS

>  <Kd>
12 nM

$$$$
>  <binder>
Nb22 (VHH) VHH: QVQLVESGGGLVQAGGSLRLSCAASGRTFSSYTMGWFRQAPGKEREFVAAIRWSGGSTYYADSVKGRFTISRDNAKNTVYLQMNSLKPEDTAVYYCAASDRGGFIATSGGWMDYWGKGTQVTVSS

>  <Kd>
10 nM

$$$$
>  <binder>
Nb23 (VHH) VHH: QVQLVESGGGLVQAGGSLRLSCAASGRTFSRYTMGWFRQAPGKDREFVARITTSGAVTTYADSAKGRFTISRDNAKNTVYLQMNTLKPEDTAVYYCAAGQGQLSSQSRFVDYWGQGTQVTVSS

>  <Kd>
20 nM

$$$$
>  <binder>
Nb42 (VHH) VHH: QVQLVESGGGLVQAGGSLRLSCAASGDVNYAVGWFRQAPRKEREFVAAINWRGDNTDYTDSVKGRFTISRDNAKNTVYLQMNSLKPEDTAVYYCAAKSAPYWYSDIAPDYWGQGTQVTVSS

>  <Kd>
58 nM

$$$$
>  <binder>
Nb38 (VHH) VHH: QVQLVESGGGLVQPGGSLRLSCAASGSIRSIATSAWYRQPPGKQRELVAGISSGTTTNYADSVKGRFTISRDNAKNTVYLQMNSLKPEDTAVYYCHAWISGTWISGQGTQVTVSS

>  <Kd>
37 nM

$$$$
>  <binder>
Nb36 (VHH) VHH: QVQLVESGGGLVQPGGSLRLSCAASGSIRSITTSAWFRQPPGKQRELVAGISSGTSTNYADSVKGRFTISRDNAKNTVYLQMNSLKPEDTAVYYCHVWISGTWYSGQGTQVTVSS

>  <Kd>
16 nM

$$$$
>  <binder>
Nb17 (VHH) VHH: QVQLVESGGGLVQPGGSLRLSCAASGSNIGYMAWYRQAPGSQRELVARIASGGSANYADSVKGRFTISRDNVKNTVYLHMNSLKPVDTAVYYCHADAWYNSRWSDYWGQGTQVTVSS

>  <Kd>
2 nM

$$$$
>  <binder>
Nb1 (VHH) VHH: QVQLVESGGGLVQAGGSLRLSCVASGRIFSGNAMGWYRQAPGRQRELVAGITNGGYTNYRQFVKGRFTISRDNAKRTVYLQMNSLKPEDTAVYYCNALDREARQVDYWGQGTQVTVSS

>  <Kd>
55 nM

$$$$
